system: EED (1-441)-His protein (Homo sapiens, UniProt O75530)
Construct: 30 nM EED (1-441)-His protein
Sequence (O75530 whole entry): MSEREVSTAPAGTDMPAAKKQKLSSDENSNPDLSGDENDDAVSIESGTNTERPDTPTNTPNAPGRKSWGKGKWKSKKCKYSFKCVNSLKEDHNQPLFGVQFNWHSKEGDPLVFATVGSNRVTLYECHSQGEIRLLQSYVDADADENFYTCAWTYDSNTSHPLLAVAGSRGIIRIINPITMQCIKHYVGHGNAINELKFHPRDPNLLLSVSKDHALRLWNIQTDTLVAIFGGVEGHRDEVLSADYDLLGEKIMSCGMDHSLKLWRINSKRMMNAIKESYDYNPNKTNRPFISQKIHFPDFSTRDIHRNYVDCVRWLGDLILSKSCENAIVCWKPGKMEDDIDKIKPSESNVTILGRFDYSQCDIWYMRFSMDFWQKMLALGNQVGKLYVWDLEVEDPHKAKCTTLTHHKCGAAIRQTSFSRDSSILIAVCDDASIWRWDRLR
assay.explanation: EED-H3K27Me3 peptide competition binding assay by AlphaScreen
assay.conditions: read-out: (a) IC50, EED Alphascreen binding Qualified
Exercise: for every item that follows, state its recorded IC50.
Numbers only; they are read as µM.

Need IC50, item COc1cc(F)ccc1CNc1ccc(-c2ccc(S(=O)(=O)N(C)C)cc2)c2nncn12 [Example 84]
0.177

Need IC50, item COc1ccc(F)cc1CNc1ccc(-c2ccc(CN(C)C)cc2)c2nncn12 [Example 81]
0.387

Need IC50, item COc1ccccc1CNc1ccc(-c2ccc(CN3CCCC3=O)cc2)c2nncn12 [Example 55]
0.0151

Need IC50, item COc1cc(F)ccc1CNc1ccc(-c2ccc(S(C)(=O)=O)nc2)c2nncn12 [Example 134]
0.177

Need IC50, item COc1cccc(F)c1CNc1ccc(-c2ccc(N3CCN(C(C)C)CC3)nc2)c2nncn12 [Example 130]
0.0311

Need IC50, item COc1ccccc1CNc1ccc(-c2ccc(S(=O)(=O)N(C)C)cc2)c2nncn12 [Example 34]
0.0045

Need IC50, item COc1c(F)cccc1CNc1ccc(-c2ccncc2)c2nncn12 [Example 137]
0.344

Need IC50, item COc1ccccc1CNc1ccc(-c2ccccc2)c2nncn12 [Example 23]
0.18

Need IC50, item Cc1ccccc1CNc1ccc(-c2ccc(CN(C)C)cc2)c2nncn12 [Example 31]
0.394

Need IC50, item COc1ccccc1CNc1ccc(-c2ccc(CN3CCC3)cc2)c2nncn12 [Example 29]
0.013

Need IC50, item COc1ccccc1CNc1ccc(-c2ccnnc2)c2nncn12 [Example 26]
0.0734

Need IC50, item COc1cccc(F)c1CNc1ccc(-c2ccc(F)nc2)c2nncn12 [Example 159]
0.049

Need IC50, item COc1cncc(-c2ccc(NCc3ccccc3OC)n3cnnc23)c1 [Example 51]
0.127

Need IC50, item CN(C)Cc1ccc(-c2ccc(NCc3cccnc3)n3cnnc23)cc1 [Example 48]
4.23

Need IC50, item COc1cccc(F)c1CNc1ccc(-c2ccc(N(C)S(C)(=O)=O)cc2)c2nncn12 [Example 154]
0.0045

Need IC50, item COc1ccccc1CNc1ccc(-c2ccc(S(=O)(=O)C(C)C)nc2)c2nncn12 [Example 127]
0.0217

Need IC50, item COc1cccc(F)c1CNc1ccc(-c2ccc(S(=O)(=O)NCCO)cc2)c2nncn12 [Example 126]
0.0115

Need IC50, item COc1cc(F)cc(F)c1CNc1ccc(-c2ccc(CN(C)C)cc2)c2nncn12 [Example 162]
0.0166
